System: PIP4K2B (Homo sapiens) | Read-out: IC50 | Origin: multiple publications
Sequence (P78356 whole entry, species assumed): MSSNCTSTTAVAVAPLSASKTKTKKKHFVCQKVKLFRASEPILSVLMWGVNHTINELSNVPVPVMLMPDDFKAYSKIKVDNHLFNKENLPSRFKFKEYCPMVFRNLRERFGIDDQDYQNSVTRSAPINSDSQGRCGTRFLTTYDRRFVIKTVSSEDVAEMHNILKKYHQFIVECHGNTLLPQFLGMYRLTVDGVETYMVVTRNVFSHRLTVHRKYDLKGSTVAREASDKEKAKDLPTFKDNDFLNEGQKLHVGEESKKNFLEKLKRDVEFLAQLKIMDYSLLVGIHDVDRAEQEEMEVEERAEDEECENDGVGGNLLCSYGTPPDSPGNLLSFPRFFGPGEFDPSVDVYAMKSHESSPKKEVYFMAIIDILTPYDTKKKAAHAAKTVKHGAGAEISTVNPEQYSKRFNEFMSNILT

Example compounds with recorded IC50:
{"compound": "Cn1cnnc1-c1ccc(-c2ccc(Nc3cnc4c(c3)N3C(=O)CC[C@H]3CO4)nc2)cc1", "IC50": "10 to 100 nM"}
{"compound": "CC1Oc2cc(N3CCCC3=O)c(F)cc2-c2cnc(Nc3cccnc3)cc21 (stereo not shown)", "IC50": "100 to 1000 nM"}
{"compound": "CN(C)C(=O)c1ccc(-c2cc(-c3ccnc4ccccc34)cnc2N)nc1", "IC50": "100 to 1000 nM"}

Could you tell me which IC50 is on file for Cn1ncc2c(-c3cncc(-c4ccc(N5CCCC5=O)cc4)c3)cn(CC#N)c(=O)c21 ?
100 to 1000 nM

###

System: PIP4K2B (Homo sapiens) | Read-out: pIC50 | Origin: multiple publications
pIC50: −log10 of the molar value.

Example compounds with recorded pIC50:
{"compound": "CC1Oc2cc(N3CCCC3=O)c(F)cc2-c2cnc(Nc3cnc4c(c3)OCCO4)cc21 (stereo not shown)", "observed value": "7.00 to 8.00"}
{"compound": "O=C1CCCN1c1ccc2c(c1)OC1(COC1)c1cc(Nc3cnc4c(c3)N3C(=O)CC[C@H]3CO4)ncc1-2", "observed value": "8.00 to 9.00"}
{"compound": "Cn1c(C(N)=O)cc2c(-c3cncc(-c4ccc(N5CCCC5=O)cc4)c3)cn(C)c2c1=O", "observed value": "5.60 to 6.00"}

Continue with the compound presented below.
Could you tell me which pIC50 is on file for CC1CN(C(=O)Nc2cncc(Nc3ccc(-c4ccc(N5CCCC5=O)cc4)cn3)c2)CCO1 (stereo not shown) ?
7.00 to 8.00

###

pIC50: −log10 of the molar value.
System: PIP4K2B (Homo sapiens) | Read-out: pIC50 | Origin: multiple publications

Example compounds with recorded pIC50:
{"compound": "CC1Oc2cc(N3CCCC3=O)ccc2-c2cnc(Nc3cncc(NC(=O)c4cccc5nccn45)c3)cc21 (stereo not drawn)", "reported metric": "pIC50", "observed value": "8.00 to 9.00"}
{"compound": "CN(C)C(=O)c1ccc(-c2ccc(Nc3cncc(NC(=O)CCc4cccc(NC(=O)OC(C)(C)C)c4)c3)nc2)cc1", "reported metric": "pIC50", "observed value": "7.00 to 8.00"}
{"compound": "O=C1CCCN1c1ccc(-c2ccc(Nc3cnc4c(c3)N(C(=O)C3(O)CC3)CCO4)nc2)cc1", "reported metric": "pIC50", "observed value": "7.00 to 8.00"}
{"compound": "CN(C)C(=O)c1ccc(-c2cc(-c3ccnc(CNC(=O)c4cccc(N)c4)c3)cnc2N)nc1", "reported metric": "pIC50", "observed value": "5.60 to 6.00"}
{"compound": "CC1Oc2cc(N3CCCC3=O)ccc2-c2cnc(Nc3cncc(NC(=O)c4ccncc4)c3)cc21 (stereo not drawn)", "reported metric": "pIC50", "observed value": "7.00 to 8.00"}

Could you tell me which pIC50 is on file for CNC(=O)c1cc2c(-c3cnc(N)c(-c4ccc(-c5nncn5C(C)C)cc4)c3)ccnc2o1 ?
7.00 to 8.00

CNC(=O)c1cc2c(-c3cncc(-c4ccc(N5CCCC5=O)cc4C)c3)ccnc2o1 ?
6.00 to 7.00

COc1ncc(Nc2cc3c(cn2)-c2ccc(N4CCCC4=O)cc2OC3C)cc1NS(C)(=O)=O (stereo not drawn) ?
7.00 to 8.00

CC1Oc2cc(N3CCCC3=O)c(F)cc2-c2cnc(Nc3cnc4c(c3)N3C(=O)[C@](C)(O)C[C@H]3CO4)cc21 (stereo partly drawn) ?
7.00 to 8.00

Cc1cncc(Nc2cc3c(cn2)-c2ccc(N4CCCC4=O)cc2OC3C)c1 (stereo not drawn) ?
6.00 to 7.00
